Biological target: human APJ receptor (Homo sapiens, UniProt P35414)
Construct: expressed in transfected cells
Sequence (P35414 whole entry): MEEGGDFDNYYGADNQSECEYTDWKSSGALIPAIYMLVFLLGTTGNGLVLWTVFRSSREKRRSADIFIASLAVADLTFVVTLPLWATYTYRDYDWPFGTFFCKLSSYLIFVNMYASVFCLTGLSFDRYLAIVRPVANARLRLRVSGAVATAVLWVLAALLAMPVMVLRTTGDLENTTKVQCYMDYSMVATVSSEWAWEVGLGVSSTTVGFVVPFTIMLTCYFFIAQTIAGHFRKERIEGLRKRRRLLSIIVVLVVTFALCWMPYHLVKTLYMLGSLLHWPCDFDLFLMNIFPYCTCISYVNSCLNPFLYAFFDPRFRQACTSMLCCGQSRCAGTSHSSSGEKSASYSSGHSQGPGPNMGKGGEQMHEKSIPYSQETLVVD
Assay: Intracellular cAMP accumulation assay (APJ hcAMP, HTRF)
Assay type: cell-based
Settings: Table 1; HEK293 cells stably expressing human APJ receptor; inhibition of forskolin-mediated cAMP production; read-out: APJ hcAMP EC50
Measure Name: EC50

// below: answered molecules
[
  {
    "Molecule": "CCCC(NC(=O)c1ccc(-c2cc(Cl)ccc2-c2nc3cc(C(C)(C)C)ccc3[nH]2)c(C(=O)O)c1)c1ccccc1OC (stereo not drawn) [Example 241]",
    "System Name": "human APJ receptor (Homo sapiens, UniProt P35414)",
    "EC50": "< 10 nM"
  },
  {
    "Molecule": "CCC[C@@H](NC(=O)c1ccc(-c2c(Cl)cccc2-c2nc3ccccc3[nH]2)c(C(=O)O)c1)c1ccccc1 (atropisomer, axis not shown) [Example 81]",
    "System Name": "human APJ receptor (Homo sapiens, UniProt P35414)",
    "EC50": "< 10 nM"
  },
  {
    "Molecule": "CCC[C@@H](NC(=O)c1ccc(-c2cc(F)ccc2-c2nc3cc(C(C)(C)C)ccc3[nH]2)c(C(=O)O)c1)c1ccccc1 [Example 39]",
    "System Name": "human APJ receptor (Homo sapiens, UniProt P35414)",
    "EC50": "10 to 100 nM"
  },
  {
    "Molecule": "CCC[C@@H](NC(=O)c1ccc(-c2c(C)cccc2-c2nc3cc(C(F)(F)F)ccc3[nH]2)c(C(=O)O)c1)c1ccccc1 (single isomer, unassigned) [Example 146]",
    "System Name": "human APJ receptor (Homo sapiens, UniProt P35414)",
    "EC50": "< 10 nM"
  },
  {
    "Molecule": "CC(C)(C)CC(NC(=O)c1ccc(-c2cc(Cl)ccc2-c2nc3ccccc3[nH]2)c(C(=O)O)c1)c1ccccc1 (racemic) [Example 212]",
    "System Name": "human APJ receptor (Homo sapiens, UniProt P35414)",
    "EC50": "10 to 100 nM"
  },
  {
    "Molecule": "O=C(N[C@H](c1ccccc1)C1CC1)c1ccc(-c2c(Cl)cccc2-c2nc3ccccc3[nH]2)c(C(=O)O)c1 (single isomer, unassigned) [Example 229]",
    "System Name": "human APJ receptor (Homo sapiens, UniProt P35414)",
    "EC50": "10 to 100 nM"
  },
  {
    "Molecule": "COC[C@@H](NC(=O)c1ccc(-c2cc(Cl)ccc2-c2nc3cc(Cl)ccc3[nH]2)c(C(=O)O)c1)c1ccccc1 [Example 79]",
    "System Name": "human APJ receptor (Homo sapiens, UniProt P35414)",
    "EC50": "< 10 nM"
  },
  {
    "Molecule": "COc1cc2[nH]c(-c3cccc(Cl)c3-c3ccc(C(=O)NCc4ccc(Cl)cc4)cc3C(=O)O)nc2cc1F [Example 120]",
    "System Name": "human APJ receptor (Homo sapiens, UniProt P35414)",
    "EC50": "10 to 100 nM"
  }
]

Request: Any idea what its EC50 is? The molecule is CCCC(NC(=O)c1ccc(-c2c(Cl)cccc2-c2nc3cc(OC)c(F)cc3[nH]2)c(C(=O)O)c1)C1CCCCC1 (single isomer, unassigned) [Example 198]
Result: < 10 nM

From: patent US11498903B2
